Entries with reported Ki on Muscarinic acetylcholine receptor M5 (Homo sapiens, UniProt P08912)
Sequence (P08912 whole entry): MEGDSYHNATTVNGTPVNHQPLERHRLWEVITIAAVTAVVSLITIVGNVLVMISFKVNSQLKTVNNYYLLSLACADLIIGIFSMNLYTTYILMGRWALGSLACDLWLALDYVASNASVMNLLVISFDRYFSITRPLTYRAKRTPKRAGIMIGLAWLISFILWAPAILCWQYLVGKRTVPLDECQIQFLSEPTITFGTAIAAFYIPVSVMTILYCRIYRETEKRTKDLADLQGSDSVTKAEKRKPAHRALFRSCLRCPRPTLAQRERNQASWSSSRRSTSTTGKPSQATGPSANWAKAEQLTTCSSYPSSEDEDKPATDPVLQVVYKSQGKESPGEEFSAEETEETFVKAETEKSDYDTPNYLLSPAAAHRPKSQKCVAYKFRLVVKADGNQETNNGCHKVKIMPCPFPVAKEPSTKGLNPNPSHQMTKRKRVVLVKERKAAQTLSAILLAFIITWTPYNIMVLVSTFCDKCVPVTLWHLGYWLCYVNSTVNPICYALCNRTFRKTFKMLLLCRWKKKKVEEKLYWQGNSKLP
Your answer is read as nM, so omit the unit and give the number.

### Prompt Observed Ki on Muscarinic acetylcholine receptor M5 (Homo sapiens, UniProt P08912) for COc1nsnc1OCCOCCOCCOCCOc1nsnc1C1=CCCN(C)C1 , please.
### Response 398

### Prompt Requested read-out Ki, target or system Muscarinic acetylcholine receptor M5 (Homo sapiens, UniProt P08912), entry CN1CCC=C(c2nsnc2OCCOCCOCCOCCOc2nsnc2C2=CCCN(C)C2)C1
### Response 63.1

### Prompt Form: Entry = CC(=O)OCCCCCCCCCCCCOc1nsnc1C1=CCCN(C)C1 | System = Muscarinic acetylcholine receptor M5 (Homo sapiens, UniProt P08912) | Ki = ____
### Response 631

From: ChEMBL document CHEMBL1145111
